Let's look at some compounds and their measured Fold Change in Growth Inhibition.
- System: Botrytis cinerea (ATCC 90479)
- PROCEDURE_DETAILS: Botrytis cinerea hyphal growth inhibition on PDA agar (colony diameter), adjuvant with or without pyraclostrobin
- Format: cell-based
- CONDITION_CONTEXT: with Pyra (pyraclostrobin) 0.0313 μg/mL; adjuvant concentration 50 μg/mL (Ia-Ie) or 64 μg/mL (If, Ig); 48 hours at 22° C.; relative to fungicide alone
- Method: Percent Inhibition-The percent inhibition will be understood to represent the amount the fungicide and/or adjuvant that inhibits the visible growth of the microorganism after 48 hours incubation at 22° C. relative to vehicle treated controls. This is calculated using the following formula: […] Fold Change—The fold change is a measure of the adjuvant/fungicide combination in inhibiting a microorganism compared to the fungicide alone. […] This is calculated using the following formula: […]
Form rule: numeric answer, no unit written next to it.

Request: Tell me reported Fold Change in Growth Inhibition for O=C1NCC(=O)N2CCCC12 (stereo not shown) , tested with Botrytis cinerea (ATCC 90479).
Result: 0.96

Request: For the record CN1CC(=O)N(C)C(Cc2ccccc2)C1=O (stereo not shown) , what value of Fold Change in Growth Inhibition is listed for Botrytis cinerea (ATCC 90479)?
Result: 1.09

Request: Item: O=C1CNC(=O)C(Cc2ccccc2)N1 (stereo not shown) Test system: Botrytis cinerea (ATCC 90479) Read-out: Fold Change in Growth Inhibition Value: ?
Result: 1.14

Request: # returns recorded Fold Change in Growth Inhibition (system: Botrytis cinerea (ATCC 90479)) for CN1C(=O)C2CCCN2C(=O)C1Cc1ccccc1 (stereo not shown)
Result: 1.23

Request: Can you look up Fold Change in Growth Inhibition on Botrytis cinerea (ATCC 90479) for O=C1NC(Cc2ccccc2)C(=O)N2CCC=C12 (stereo not shown) [DKP (Ig), cyclo (-Phe-dhPro) diketopiperazine] ?
Result: 1.22

Request: # get_value(readout= Fold Change in Growth Inhibition, system= Botrytis cinerea (ATCC 90479)) for O=C1NC(Cc2ccccc2)C(=O)N2CCCC12 (stereo not shown)
Result: 1.32

Request: Lookup: Fold Change in Growth Inhibition / Botrytis cinerea (ATCC 90479) / O=C1NC(Cc2ccccc2)C(=O)N2CCCCC12 (stereo not shown) [DKP (If), cyclo (-Phe-Pip) diketopiperazine]
Result: 1.34

Where do these numbers come from? They come from patent US20250134104A1.
